Tested on: Miltenberger Antibody Positive Panel
protocolSummary: Reactivity of modified RBCs against the Miltenberger Antibody Positive Panel
Format: cell-based, human
Set-up: key: 0 or ‘−’ no agglutination; 0 or ‘−’ no agglutination; 1+ or 3=very weak agglutination; 1+ or 3=very weak agglutination; 2+ or 5=weak agglutination; 2+ or 5=weak agglutination; 3+ or 8=moderate strong agglutination; 3+ or 8=moderate strong agglutination; 4+ or 10/12=strong agglutination; 4+ or 10/12=strong agglutination; 4+ or 10/12=strong agglutination
conditionDescription: Table 8; construct 50 μg/ml
Excerpt: Red blood cells are modified by mixing 1 part by volume of washed packed red blood cells with 1 part by volume of peptide-lipid construct dispersed at a concentration of 10 to 1000 pg/ml in cell media (Celpresol™). […] Serological reactions are graded or scored by either of two established systems (0 or ‘−’ no agglutination, 1+ or 3=very weak agglutination, 2+ or 5=weak agglutination, 3+ or 8=moderate strong agglutination, 4+ or 10/12=strong agglutination) […]
No end group written: not given here.
Reported values of score vs panel 8 T5896 for individual entries
Returns: the value as a bare number; no unit string appended.

[[record]]
substance = "M34: DOPE peptide-lipid construct: MUTK peptide SSQTNDKHKR, leader c, spacer CMG(2) (SSQTNDKHKRC; also: DOPE peptide-lipid construct via leader Cys, spacer CMG(2))"
readoutvalue = 0

[[record]]
substance = "M37: DOPE peptide-lipid construct: MUTK peptide TNDKHKRDTYP, leader c, spacer CMG(2) (TNDKHKRDTYPC; also: DOPE peptide-lipid construct via leader Cys, spacer CMG(2))"
readoutvalue = 0


Looking up M33: DOPE peptide-lipid construct: MUTK peptide QTNDKHKRDTY, leader c, spacer CMG(2) (QTNDKHKRDTYC; also: DOPE peptide-lipid construct via leader Cys, spacer CMG(2)) , I see its score vs panel 8 T5896 listed as 0

----------
# maps each entry to its score vs panel 4 T7202
Tested on: Miltenberger Antibody Positive Panel
protocolSummary: Reactivity of modified RBCs against the Miltenberger Antibody Positive Panel
Assay type: cell-based, human
Set-up: key: 0 or ‘−’ no agglutination; 0 or ‘−’ no agglutination; 1+ or 3=very weak agglutination; 1+ or 3=very weak agglutination; 2+ or 5=weak agglutination; 2+ or 5=weak agglutination; 3+ or 8=moderate strong agglutination; 3+ or 8=moderate strong agglutination; 4+ or 10/12=strong agglutination; 4+ or 10/12=strong agglutination; 4+ or 10/12=strong agglutination
conditionDescription: Table 9; construct 100 μg/ml
No end group written: not given here.
The response must contain the number and no unit.

Solved cases below.
[[record]]
substance = "M18: DOPE peptide-lipid construct: Mur peptide PAHTANEV, leader c, spacer CMG(2) (PAHTANEVC; also: DOPE peptide-lipid construct via leader Cys, spacer CMG(2))"
readoutvalue = 0

[[record]]
substance = "M17: DOPE peptide-lipid construct: Mur peptide TYPAHTANEV, leader c, spacer CMG(2) (TYPAHTANEVC; also: DOPE peptide-lipid construct via leader Cys, spacer CMG(2))"
readoutvalue = 8

[[record]]
substance = "M19: DOPE peptide-lipid construct: Mur peptide PAHTANEV, leader c, spacer CMG(2) (PAHTANEVC; also: DOPE peptide-lipid construct via leader Cys, spacer CMG(2))"
readoutvalue = 0

[[record]]
substance = "M16: DOPE peptide-lipid construct: Mur peptide TYPAHTANEV, leader c, spacer PEG (TYPAHTANEVC; also: DOPE peptide-lipid construct via leader Cys, spacer PEG)"
readoutvalue = 5


The substance listed as M14: DOPE peptide-lipid construct: Mur peptide DTYPAHTANEVSE, leader c, spacer CMG(2) (DTYPAHTANEVSEC; also: DOPE peptide-lipid construct via leader Cys, spacer CMG(2)) shows score vs panel 4 T7202 equal to 5

Just for reference, patent US10919941B2 is where these values come from.
